Each entry below carries its recorded IC50.
molecular target: HDAC2 (Homo sapiens, UniProt Q92769); assay: HDAC2 fluorescence inhibition assay (tBoc-Lys(Ac)-AMC)
Sequence (Q92769 with tags, fused parts or gaps): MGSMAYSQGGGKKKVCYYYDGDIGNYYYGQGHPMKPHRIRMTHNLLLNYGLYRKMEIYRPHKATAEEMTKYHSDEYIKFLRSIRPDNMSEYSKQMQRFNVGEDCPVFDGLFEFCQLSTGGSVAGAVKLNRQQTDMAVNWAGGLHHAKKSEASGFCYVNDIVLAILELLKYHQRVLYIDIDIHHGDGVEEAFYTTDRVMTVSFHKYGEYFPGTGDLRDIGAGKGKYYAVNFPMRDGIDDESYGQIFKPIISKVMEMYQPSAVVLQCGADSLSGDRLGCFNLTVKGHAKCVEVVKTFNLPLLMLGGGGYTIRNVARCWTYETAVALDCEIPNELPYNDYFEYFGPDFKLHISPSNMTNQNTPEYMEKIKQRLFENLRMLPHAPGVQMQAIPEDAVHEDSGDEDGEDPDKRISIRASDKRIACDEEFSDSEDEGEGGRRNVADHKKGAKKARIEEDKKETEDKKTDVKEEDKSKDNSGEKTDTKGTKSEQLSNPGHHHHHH

These recorded examples may help you get a feel for the data.
Cc1cnn(Cc2ccc(C(=O)Nc3cc(-c4cccs4)ccc3N)cc2)c1    ≤ 50 nM
Cc1c2cccc(C(F)(F)F)c2nn1Cc1ccc(C(=O)Nc2ccccc2N)cc1    50 to 100 nM
Nc1ccccc1NC(=O)c1ccc(Cn2cc(C(=O)NC3CC3)cn2)cc1    50 to 100 nM
Nc1ccccc1NC(=O)c1ccc(Cn2cc(C(=O)O)cn2)cc1    ≥ 500 nM
Nc1ccc(-c2cccs2)cc1NC(=O)c1ccc(Cn2cc3c(F)cc(F)cc3n2)cc1    100 to 500 nM
Cc1ccc2nn(Cc3ccc(C(=O)Nc4ccccc4N)cc3)c(C)c2c1    50 to 100 nM

Input: Query: IC50; subject: `Nc1ccccc1NC(=O)c1ccc(Cn2cc3cc(F)ccc3n2)cc1`
Output: ≤ 50 nM

Input: Also check `Nc1ccccc1NC(=O)c1ccc(Cn2cc3cccc(F)c3n2)cc1`
Output: 50 to 100 nM

Input: Also check `COc1ccc2nn(Cc3ccc(C(=O)Nc4ccccc4N)cc3)cc2c1`
Output: ≤ 50 nM

Input: Also check `COC(=O)Nc1ccc2c(cnn2Cc2ccc(C(=O)Nc3ccccc3N)cc2)c1`
Output: ≤ 50 nM

Input: Also check `Nc1ccccc1NC(=O)c1ccc(Cn2nc(Cl)c3ccccc32)cc1`
Output: 50 to 100 nM

Input: Also check `Nc1ccccc1NC(=O)c1ccc(Cn2cc3ccccc3n2)cc1`
Output: 50 to 100 nM

Input: Also check `Nc1ccccc1NC(=O)c1ccc(Cn2cc(C(=O)NCCCO)cn2)cc1`
Output: ≤ 50 nM

Input: Also check `Nc1ccccc1NC(=O)c1ccc(Cn2nc(N)c3cc(C(F)(F)F)ccc32)cc1`
Output: 50 to 100 nM

Input: Also check `Nc1ccccc1NC(=O)c1ccc(Cn2nc3ccccc3n2)cc1`
Output: 50 to 100 nM

----------
molecular target: UniProt Q92769; assay: HDAC2 fluorescence inhibition assay (tBoc-Lys(Ac)-AMC)
Property Name: IC50

Nc1ccccc1NC(=O)c1ccc(CCn2cc3ccccc3n2)cc1    0.05 to 0.1 µM
Cc1c2c(F)cccc2nn1Cc1ccc(C(=O)Nc2ccccc2N)cc1    0.05 to 0.1 µM
Nc1ccccc1NC(=O)c1ccc(Cn2cc(C(=O)NCCN3CCCCC3)cn2)cc1    ≤ 0.05 µM
CC(c1ccc(C(=O)Nc2ccccc2N)cc1)n1cc2ccccc2n1 (stereo not drawn)    0.05 to 0.1 µM
Nc1ccccc1NC(=O)c1ccc(Cn2cc3ccc(C(F)(F)F)cc3n2)cc1    ≤ 0.05 µM
Nc1ccccc1NC(=O)c1ccc(Cn2ncc3cc(C(F)(F)F)ccc32)cc1    0.05 to 0.1 µM

Input: Query: IC50; subject: `Cc1cc(C)n(Cc2ccc(C(=O)Nc3ccccc3N)cc2)n1`
Output: 0.1 to 0.5 µM

Input: Also check `Cc1c2ccc(F)cc2nn1Cc1ccc(C(=O)Nc2ccccc2N)cc1`
Output: 0.05 to 0.1 µM

Input: Also check `Nc1ccccc1NC(=O)c1ccc(Cn2cc3c(F)cccc3n2)cc1`
Output: ≤ 0.05 µM

----------
Each entry below carries its recorded pIC50.
molecular target: HDAC2 (Homo sapiens, UniProt Q92769); assay: HDAC2 fluorescence inhibition assay (tBoc-Lys(Ac)-AMC)
pIC50: −log10 of the molar value.

These recorded examples may help you get a feel for the data.
Nc1ccccc1NC(=O)c1ccc(CNc2cc[nH]n2)cc1 [Example 131]    ≤ 6.30
Cc1c2cc(F)c(F)cc2nn1Cc1ccc(C(=O)Nc2ccccc2N)cc1 [Example 57]    7.00 to 7.30
COc1cc2cn(Cc3ccc(C(=O)Nc4ccccc4N)cc3)nc2cc1OC [Example 98]    ≥ 7.30
CC(=O)Nc1ccc2c(C)n(Cc3ccc(C(=O)Nc4ccccc4N)cc3)nc2c1 [Example 86]    ≥ 7.30
Cc1ccc2c(c1)c(C)nn2Cc1ccc(C(=O)Nc2ccccc2N)cc1 [Example 80]    7.00 to 7.30
Nc1ccccc1NC(=O)c1ccc(Cn2cc3cc(NC(=O)OCc4ccccc4)ccc3n2)cc1 [Example 16]    ≥ 7.30
Nc1ccccc1NC(=O)c1ccc(CNc2n[nH]c3ccccc23)cc1 [Example 30]    7.00 to 7.30
CC(=O)Nc1ccc2c(cnn2Cc2ccc(C(=O)Nc3ccccc3N)cc2)c1 [Example 3]    ≥ 7.30

Input: Query: pIC50; subject: C[C@H](c1ccc(C(=O)Nc2ccccc2N)cc1)n1cc2ccccc2n1 [Example 50]
Output: 7.00 to 7.30

Where do these numbers come from? They come from patent US7732475B2.
